system: T1, mature human TGF-β1 (human, UniProt P01137 279-390)
T1 construct: Bought protein (R&D Systems, Cat # 240-B/CF); also called TGF Beta 1; TGF-b1
T1 sequence (P01137 279-390 limits assumed): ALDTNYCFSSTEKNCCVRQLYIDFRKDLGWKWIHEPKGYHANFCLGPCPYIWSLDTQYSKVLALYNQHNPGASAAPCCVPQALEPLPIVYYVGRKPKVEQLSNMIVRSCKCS
assay-text: KinExA 3000, calculated from Kd and kon
metric: koff (s⁻¹)
Express it in s⁻¹; write the number only.

Briefly, koff measured for Fab 4.17 (Fab, V domains shown, The mAb was made by linking the Fab to an IgG4 Fc region, so the mAb's chains are named; The heavy chain entry also holds the Fc, which is not in the Fab) VH: QVQLVQSGAEVKKPGASVKVSCKASGYTFTSYWMNWVRQAPGQGLEWMGQIFPFSGSTNYNEMFEGRVTMTTDTSTSTAYMELRSLRSDDTAVYYCARGIGNYALDAMDYWGQGTLVTVSS VL: DIQMTQSPSSLSASVGDRVTITCRASESVDFWGNSFMHWYQQKPGKAPKLLIYLASNLESGVPSRFSGSGSGTDFTLTISSLQPEDFATYYCQQNAEDPLTFGGGTKVEIKR : 6e-06

All values here come from patent US20090155285A1.
